This collection of values is drawn from ChEMBL document CHEMBL1141604.

assay: Oral bioavailability in Sprague-Dawley rat at 25 mg/kg administered through MC/TW formulation; format: ADME, organism-based; settings: in vivo
measure_name: bioavailability

chemical_smiles: COc1ccccc1S(=O)(=O)NCCc1c(CCOc2ccc(C(=O)O)cc2)c2cc(Cl)ccc2n1C(c1ccccc1)c1ccccc1
bioavailability: < 0.1%
//
chemical_smiles: O=C(O)c1ccc(OCCc2c(CCNS(=O)(=O)c3ccccc3Br)n(C(c3ccccc3)c3ccccc3)c3ccc(Cl)cc23)cc1
bioavailability: < 0.2%

# evaluate next
If you can, please state the reported bioavailability value of O=C(O)c1ccc(OCCc2c(CCNS(=O)(=O)c3ccccc3-c3ccccc3)n(C(c3ccccc3)c3ccccc3)c3ccc(Cl)cc23)cc1 .
< 0.1%
